Target: Methyl-CpG-binding domain protein 4 (Homo sapiens) (UniProt O95243)
Sequence (O95243 whole entry, the tested form may be a part): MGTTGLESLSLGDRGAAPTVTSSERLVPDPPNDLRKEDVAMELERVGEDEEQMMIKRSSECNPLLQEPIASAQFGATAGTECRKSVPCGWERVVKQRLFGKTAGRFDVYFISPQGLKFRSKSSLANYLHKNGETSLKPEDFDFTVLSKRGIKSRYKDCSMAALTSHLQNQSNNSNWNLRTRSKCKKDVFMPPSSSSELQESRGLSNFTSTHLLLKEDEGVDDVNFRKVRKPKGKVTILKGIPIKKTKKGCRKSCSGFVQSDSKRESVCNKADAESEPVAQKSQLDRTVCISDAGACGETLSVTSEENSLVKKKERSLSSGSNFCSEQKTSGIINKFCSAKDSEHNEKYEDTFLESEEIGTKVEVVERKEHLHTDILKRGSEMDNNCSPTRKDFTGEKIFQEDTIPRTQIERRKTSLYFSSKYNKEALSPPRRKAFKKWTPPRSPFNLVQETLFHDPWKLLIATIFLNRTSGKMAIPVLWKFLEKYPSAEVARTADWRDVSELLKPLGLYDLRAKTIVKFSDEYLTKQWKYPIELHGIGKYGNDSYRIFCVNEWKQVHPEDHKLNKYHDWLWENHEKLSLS
Settings: Compound Concentration 10.0 uM, Hit No
Description: Inhibition of MBD4 by quantifying inhibition of MBD4-mediated cleavage and dissociation of quenched duplex DNA oligonucleotides, measured as fluorescence at 594 nm. To generate a functional strand incision and increase turn-over this assay is coupled to APE1.
Label rule, in plain words: inhibition of 10% and up is MET, under 10% is NOT MET.

Ask: Is inhibition at least 10%? Consider CN([C@@H]1CCc2c(CC(=O)O)c3cc(S(C)(=O)=O)ccc3n2C1)S(=O)(=O)c1ccc(F)cc1
Reply: MET

Ask: CCCCCCCCCCCCC/C=C/[C@@H](O)[C@@H](N)COP(=O)([O-])OCC[N+](C)(C)C ?
Reply: NOT MET

---
Ask: Assess whether reported inhibition for O=C(NCC12CC3CC(CC(C3)C1)C2)c1ccccc1Cl sits at 10% or higher.
Reply: MET

Ask: Thanks! And O=C(O)c1ccc(S(=O)(=O)N(Cc2ccc(OC(F)(F)F)cc2)c2ncc(C(F)(F)F)cc2Cl)cc1 ?
Reply: MET

Ask: Request: CNCc1ccccc1-c1csc([C@@H](C)Nc2nc(C)nc3cc(OC)c(OC)cc23)c1
Reply: NOT MET

Ask: Entry CC(C)C(=O)Nc1n[nH]c2cc(-c3cccc(NS(=O)(=O)C4CC4)c3)ccc12 please
Reply: NOT MET

Ask: Here is the next molecule: CCCCc1nc2ccc(NC(=O)NC3CCCCC3)cc2n1Cc1ccc(-c2ccccc2C(=O)O)cc1
Reply: MET

Ask: // query: COc1cccc(Cn2cc(C(=O)Nc3ccc(C)c(S(=O)(=O)N4CCOCC4)c3)c(-c3ccc(C)cc3)n2)c1
Reply: MET

Ask: What do you get for CC(C)c1onc(-c2c(Cl)cccc2Cl)c1COc1ccc(/C=C/c2cccc(C(=O)O)c2)c(Cl)c1 ?
Reply: MET

Ask: Here is the next molecule: CCc1ccc(N(CC(C)C)S(=O)(=O)c2ccc(OCC3CCOCC3)c(CO)c2)cc1
Reply: MET

Ask: Proceed to CSCC[C@H](NC(=O)[C@H](Cc1ccccc1)NC(=O)[C@H](Cc1c[nH]cn1)NC(=O)CNC(=O)[C@@H](NC(=O)[C@H](C)NC(=O)[C@H](Cc1c[nH]c2ccccc12)NC(=O)[C@H](CC(C)C)NC(=O)[C@H](CC(N)=O)NC(=O)CN)[C@@H](C)O)C(N)=O
Reply: NOT MET

Ask: Another: O=C(Nc1ccc(Cl)nc1)c1ccc(Cl)cc1
Reply: MET

Ask: One more molecule: CC(=O)Nc1nc(C)c(S(=O)(=O)Nc2ccc(C(O)(C(F)(F)F)C(F)(F)F)cc2)s1
Reply: MET

Ask: Entry N#Cc1c(N)nc(SCc2csc(-c3ccc(Cl)cc3)n2)c(C#N)c1-c1ccc(OCCO)cc1 please
Reply: NOT MET

Ask: Query N#Cc1c(O)nc(SCc2cccc(F)c2F)nc1C1CC1 next
Reply: MET

----------
Measured inhibition accompanies every entry in the list below.
Molecular target: Endonuclease 8-like 1 (Homo sapiens) (UniProt Q96FI4);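 further: fluorescence at 594 nm from quenched duplex DNA oligonucleotides released by NEIL1 cleavage and strand separation, reported as reduction of this enzyme activity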
Sequence (Q96FI4 whole entry): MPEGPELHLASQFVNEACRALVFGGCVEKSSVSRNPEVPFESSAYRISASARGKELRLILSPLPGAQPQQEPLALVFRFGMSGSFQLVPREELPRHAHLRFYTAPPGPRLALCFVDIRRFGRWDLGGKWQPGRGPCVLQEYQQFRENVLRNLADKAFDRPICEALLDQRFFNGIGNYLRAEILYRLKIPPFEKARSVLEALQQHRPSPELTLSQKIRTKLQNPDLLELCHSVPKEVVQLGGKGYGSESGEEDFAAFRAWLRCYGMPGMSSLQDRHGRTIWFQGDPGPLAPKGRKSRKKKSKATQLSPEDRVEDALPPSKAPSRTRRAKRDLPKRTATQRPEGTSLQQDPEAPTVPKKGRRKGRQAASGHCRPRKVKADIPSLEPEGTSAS
Conditions: Compound Concentration 1.0 uM, Hit No
Description: Inhibition of NEIL1 by quantifying inhibition of NEIL1-mediated cleavage and dissociation of quenched duplex DNA oligonucleotides, measured as fluorescence at 594 nm.
Just the number in %, nothing appended.

Some solved cases for reference:
Ask: What inhibition value was documented for this compound, Cc1cnc(Nc2ccc(F)cc2Cl)nc1-c1c[nH]c(C(=O)N[C@H](CO)c2cccc(Cl)c2)c1 ?
Reply: -0.127

Ask: What do you have for CN(C)CC#Cc1ccc2[nH]c3c(c2c1)-c1nc(N)ncc1CCC3 ?
Reply: 2.65

---
Ask: I have this compound here, COc1cccc(CNC(=O)c2nc3scc(COCc4ccc(C(=O)O)cc4)c3c(=O)[nH]2)c1 , and I need its recorded inhibition.
Reply: -1.5

----------
Molecular target: Methyl-CpG-binding domain protein 4 (Homo sapiens);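 further: MBD4 activity read as fluorescence at 594 nm from cleavage and release of a quenched duplex DNA oligonucleotide, with APE1 coupled to incise the strand and raise turnover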
Conditions: Compound Concentration 1.0 uM, Hit No
Attribute: inhibition
Please format your answer as a value with the unit trailing.

Ask: Recorded inhibition of O=C(Nc1ccc(-c2ccnc(Nc3ccc(N4CCOCC4)cc3)n2)cc1)[C@@H]1CCCN1 , please.
Reply: -0.777%

Ask: Try this compound next: Cc1cc(Nc2nccc(C)n2)cc(-c2cnc([C@@]3(O)CC[C@H](C(=O)O)C(C)(C)C3)s2)c1
Reply: 25.6%

Ask: Now try N[C@@H]1CCCN(c2c(/C=C3\SC(=O)NC3=O)cccc2-c2ccccc2)C1 .
Reply: 5.7%

Ask: One more compound: CN(C)C(=O)/C(C#N)=C/c1ccc(-c2nc3cnc4[nH]ccc4c3n2C2CCCCC2)o1
Reply: 2.33%

Ask: Now the same for CCOC(=O)c1cc2cc(-c3cc(C(=O)NCc4ccc(C(=O)O)cc4)nn3C)ccc2[nH]1
Reply: 61%

New cases:
Ask: // lookup inhibition for CN1CCN(C(=O)C(C)(C)c2ccc(C(=O)Nc3cn4cc(-c5ccncc5)ccc4n3)cc2)CC1
Reply: -4.56%

Ask: What about COc1ncc(-c2ccc3nccc(-c4ccnnc4)c3c2)cc1NS(=O)(=O)c1ccc(F)cc1F ?
Reply: 24%

Ask: What would you report for Cc1n[nH]c2ncc(C(=O)N3CCC[C@H]3c3ccc(Cl)cc3)cc12 ?
Reply: 9.29%

Ask: Lookup CCCOc1ccc([C@@H]2[C@@H](C(=O)O)[C@H](c3ccc4c(c3)OCO4)CN2CC(=O)Nc2c(CC)cccc2CC)cc1
Reply: 66.2%

----------
Measured inhibition by item
Target: Adenine DNA glycosylase (Homo sapiens) (UniProt Q9UIF7)
Sequence (Q9UIF7 whole entry): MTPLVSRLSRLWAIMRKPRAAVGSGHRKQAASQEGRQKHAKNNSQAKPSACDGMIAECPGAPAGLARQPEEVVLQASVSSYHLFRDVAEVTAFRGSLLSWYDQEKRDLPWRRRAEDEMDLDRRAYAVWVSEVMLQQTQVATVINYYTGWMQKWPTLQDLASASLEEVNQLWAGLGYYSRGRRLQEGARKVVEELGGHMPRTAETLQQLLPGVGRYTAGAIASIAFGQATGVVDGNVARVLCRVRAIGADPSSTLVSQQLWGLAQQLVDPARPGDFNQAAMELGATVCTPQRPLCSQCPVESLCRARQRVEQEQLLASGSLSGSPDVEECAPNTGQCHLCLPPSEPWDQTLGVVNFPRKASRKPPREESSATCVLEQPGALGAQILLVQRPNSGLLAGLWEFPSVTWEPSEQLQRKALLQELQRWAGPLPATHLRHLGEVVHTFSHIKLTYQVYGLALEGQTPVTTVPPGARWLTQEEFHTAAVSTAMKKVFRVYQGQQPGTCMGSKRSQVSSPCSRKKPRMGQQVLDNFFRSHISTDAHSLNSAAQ
Settings: Compound Concentration 10.0 uM, Hit No
Description: Inhibition of MUTYH by quantifying inhibition of MUTYH-mediated cleavage and dissociation of quenched duplex DNA oligonucleotides, measured as fluorescence at 594 nm. To generate a functional strand incision and increase turn-over this assay is coupled to APE1.
# value in %; strip the unit string

Worked examples follow.
Ask: Form field - read-out: inhibition; system: Adenine DNA glycosylase (Homo sapiens) (UniProt Q9UIF7); submitted item: CC(C)c1cc(Br)c(NC(=O)Nc2cccnc2)c(Br)c1;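 further: human MUTYH activity read as 594 nm fluorescence from cleavage and release of a quenched DNA duplex, coupled with APE1 for strand incision, lower signal meaning inhibition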
Reply: 0.0238

Ask: What do you get for C=CC(=O)Nc1cccc(C(=O)Nc2ccc(Nc3cc(-c4[nH]c(S)nc4C)ccn3)cc2)c1 ?
Reply: 61

Ask: Now the same for CC(C)OC(=O)C1=CN(C(=O)c2ccc(F)c(F)c2)CC(C)(C)c2c1[nH]c1ccccc21
Reply: 4.92

Next:
Ask: Missing value: inhibition, Adenine DNA glycosylase (Homo sapiens) (UniProt Q9UIF7), entry CCS(=O)(=O)c1cc2cc(C[C@](O)(CC(C)(C)c3ccc(F)cc3C(N)=O)C(F)(F)F)[nH]c2cn1 . Fill in?
Reply: -1.09

----------
Below, each of the compounds is paired with its reported inhibition value.
Target: Endonuclease 8-like 2 (Homo sapiens) (UniProt Q969S2);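 further: fluorescence at 594 nm reports NEIL2 cutting and release of a quenched double-stranded DNA oligo substrate, reduced signal read as inhibition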
Sequence (Q969S2 whole entry): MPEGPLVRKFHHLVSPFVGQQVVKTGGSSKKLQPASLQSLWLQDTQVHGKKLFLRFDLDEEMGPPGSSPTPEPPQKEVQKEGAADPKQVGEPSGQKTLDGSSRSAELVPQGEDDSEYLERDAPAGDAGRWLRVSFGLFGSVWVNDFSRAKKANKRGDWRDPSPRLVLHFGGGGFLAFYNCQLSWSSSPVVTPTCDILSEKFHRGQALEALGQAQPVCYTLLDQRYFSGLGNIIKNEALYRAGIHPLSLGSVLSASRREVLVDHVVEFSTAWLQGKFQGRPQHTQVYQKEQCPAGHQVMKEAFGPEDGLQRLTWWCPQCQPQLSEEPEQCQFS
Conditions: Compound Concentration 10.0 uM, Hit No
Description: Inhibition of NEIL2 by quantifying inhibition of NEIL2-mediated cleavage and dissociation of quenched duplex DNA oligonucleotides, measured as fluorescence at 594 nm.
Give the value, in units of %, as a plain number.

Ask: Suppose we examine the compound Cn1nc(C(F)(F)F)cc1-c1cnc(N2CCc3cc(S(=O)(=O)Nc4c(F)cc(Cl)cc4F)cc(N4CCCC4=O)c32)nc1 ; what inhibition value has been reported?
Reply: 4.87

---
Ask: Request the reported inhibition associated with Cc1ccccc1N1CCN(CCc2nnc3n2CCCC3)CC1
Reply: -1.98

Ask: Subsequent entry: CS(=O)(=O)NC[C@H]1CC[C@H](Nc2nc3c(s2)CCSc2ccccc2-3)CC1
Reply: 8.25

Ask: Same again, this time with CC(C)(C)NC[C@H](O)COc1nsnc1N1CCOCC1
Reply: -5.47

Ask: Same question, CN([C@@H]1CCc2c(CC(=O)O)c3ccccc3n2C1)S(=O)(=O)c1ccc(F)cc1 this time
Reply: -4.06

Ask: Another: Cc1cccc(CCN2CCC(C(=O)c3ccc(NS(C)(=O)=O)cc3)CC2)n1
Reply: -4.17

Ask: Okay, and COC1CCN(c2cccc(-c3cc(NC(C)=O)nc(-n4nc(C)cc4C)n3)n2)CC1 ?
Reply: 2.26

Ask: What do you get for CN1CCN(c2nc3cc(C(F)(F)F)ccc3n3cccc23)CC1 ?
Reply: 16.2

Ask: Repeat for the following compound: COc1ccc(CCN(C)CCCC(C#N)(c2cc(OC)c(OC)c(OC)c2)C(C)C)cc1OC (stereo unspecified)
Reply: 2.71

Ask: Consider next the compound CC#C[C@@H](CC(=O)O)c1ccc(OCc2cccc(-c3ccc(C(F)(F)F)cc3)c2)cc1 in the same way.
Reply: 0.764

Ask: Queued: COc1cccc(Cn2cc(C(=O)Nc3ccc(C)c(S(=O)(=O)N4CCOCC4)c3)c(-c3ccc(C)cc3)n2)c1
Reply: -7.38

Ask: Try this compound next: COc1ccccc1-c1cc(Nc2cccc(CS(N)(=O)=O)c2)ncn1
Reply: 4

Ask: // same read-out, input: CCCC(=O)N[C@@H](Cc1ccc(O)cc1)C(=O)NCCCCCCCNCCCCN
Reply: -1.62

Ask: And N#CC1(c2ccccn2)CCN(Cc2cc(C(=O)O)c(=O)n3ccccc23)CC1 ?
Reply: 0.531

Ask: Then what about the compound Nc1nc(CC(=O)Nc2ccc(CCNC[C@H](O)c3ccccc3)cc2)cs1 ?
Reply: -2.64

Ask: What do you have for COc1ccc(NC(=O)[C@@H]2C[C@H](C)CC[C@H]2C(C)C)cc1 ?
Reply: -3.15
